The following binders are shown together with reported koff values.
# Study Target: T1, recombinant human HER2 extracellular domain protein (human, UniProt P04626 23-652)
# T1 construct: range 23-652; Range is printed for the immunogen/panning protein; also called ErbB2; recombinant HER2 protein
# Test Name: BLI, Protein A capture

Binder	koff / s⁻¹
Hu2117HK-Mu10 (Fc fusion, scFv-hIgG1 Fc; not shown: human IgG1 Fc) scFv: EVQLVESGGGLVQPGGSLRLSCAASGFTYSSYGMSWVRQAPGKGLEWVASISGGGSYTKYVDSVKGRFTISRDNSKNTLYLQMNSLRAEDTAVYYCARDYAGFFDVWGQGTLVTVSSGGGGSGGGGSGGGGSDIQMTQSPSSLSASVGDRVTITCRSSQSLVHSNGNTYLHWYQQKPGKAPKLLIYKVSNRFSGVPSRFSGSGSGTDFTLTISSLQPEDFATYFCSQSTHVPYTFGQGTKVEIK	0.000546
Hu2117HK-Mu29 (Fc fusion, scFv-hIgG1 Fc; not shown: human IgG1 Fc) scFv: EVQLVESGGGLVQPGGSLRLSCAASGFTYSSYGMSWVRQAPGKGLEWVASISGGGSYTKYPDSVKGRFTISRDNSKNTLYLQMNSLRAEDTAVYYCARDYAGFFDVWGQGTLVTVSSGGGGSGGGGSGGGGSDIQMTQSPSSLSASVGDRVTITCRSSQSLLHSNGNTYLHWYQQKPGKAPKLLIYKVSNRFSGVPSRFSGSGSGTDFTLTISSLQPEDFATYFCSQSTHVPYTFGQGTKVEIK	0.000668
Hu2117HK-Mu49 (Fc fusion, scFv-hIgG1 Fc; not shown: human IgG1 Fc) scFv: EVQLVESGGGLVQPGGSLRLSCAASGFTYSSYGMSWVRQAPGKGLEWVASISGGGSYTKYPDSVKGRFTISRDNSKNTLYLQMNSLRAEDTAVYYCARDYSGFFDVWGQGTLVTVSSGGGGSGGGGSGGGGSDIQMTQSPSSLSASVGDRVTITCRSSQSLVHSNGNTYLHWYQQKPGKAPKLLIYKVSNRFSGVPSRFSGSGSGTDFTLTISSLQPEDFATYFCSQSTHVPYTFGQGTKVEIK	0.000761
Hu2117HK-Mu35 (Fc fusion, name in Kabat numbering, scFv-hIgG1 Fc; not shown: human IgG1 Fc) scFv: EVQLVESGGGLVQPGGSLRLSCAASGFTYSSYGMSWVRQAPGKGLEWVASISGGGSYTKYPDSVKGRFTISRDNSKNTLYLQMNSLRAEDTAVYYCARDYAGFFDVWGQGTLVTVSSGGGGSGGGGSGGGGSDIQMTQSPSSLSASVGDRVTITCRSSQSLVHSNGNTYLHWYQQKPGKAPKLLIYKVSNRFSGVPSRFSGSGSGTDFTLTISSLQPEDFATYFCLQSTHVPYTFGQGTKVEIK	0.0037
Hu2117HK-Mu40 (Fc fusion, scFv-hIgG1 Fc; not shown: human IgG1 Fc) scFv: EVQLVESGGGLVQPGGSLRLSCAASGFTYSDYGMSWVRQAPGKGLEWVASISGGGSYTKYPDSVKGRFTISRDNSKNTLYLQMNSLRAEDTAVYYCARDYAGFFDVWGQGTLVTVSSGGGGSGGGGSGGGGSDIQMTQSPSSLSASVGDRVTITCRSSQSLVHSNGNTYLHWYQQKPGKAPKLLIYKVSNRFSGVPSRFSGSGSGTDFTLTISSLQPEDFATYFCSQSTHVPYTFGQGTKVEIK	0.000867
